# method.notes: Mouse PK studies of 11 (plasma)
# Type: in vivo, Female C57B16/N mice
# protocol.conditions: female, C57B16/N, mouse, plasma, po, 50 mg/kg, 50 mg/kg PO, formulation b
result.type: AUC(0-inf) (ng·h/mL)

* C[C@@H]1Cc2cc(C(N)=O)cnc2N1 | 46700

###

# method.notes: in vitro
# protocol.conditions: human, microsomes
result.type: CLint scaled at 2 μM

• C[C@@H]1Cc2cc(C(N)=O)cnc2N1 = < 6.79 mL/min/kg

###

# method.notes: Mouse PK studies of 11 (plasma)
# Format: in vivo, Female C57B16/N mice
# protocol.conditions: female, C57B16/N, mouse, plasma; 50 mg/kg PO, formulation b; read-out: Cmax
# Description: Doses were freshly prepared on the day of dosing. Vehicle compositions of each dose are listed below. […] Adjust pH with 1 N hydrochloric acid to obtain a clear solution or (b) 0.2% Tween 80/20% PEG-300 in water. Adjust pH with 1 N hydrochloric acid to obtain a clear solution Then the samples were vortexed for 30 s.
result.type: Cmax (ng/mL)

- C[C@@H]1Cc2cc(C(N)=O)cnc2N1 [Compound 11]: 19000

###

# method.notes: in vitro
# protocol.conditions: human, microsomes
result.type: microsomal CLint at 2 μM

* C[C@@H]1Cc2cc(C(N)=O)cnc2N1 [Compound 11] | < 5.42 µL/min/mg

###

# method.notes: Mouse PK studies of 11 (plasma)
# Assay type: in vivo, Female C57B16/N mice
# protocol.conditions: female, C57B16/N, mouse, plasma; 1 mg/kg IV
result.type: C0 (ng/mL)

- C[C@@H]1Cc2cc(C(N)=O)cnc2N1: 2620

###

# method.notes: Mouse PK studies of 11 (plasma)
# Type: in vivo, Female C57B16/N mice
# protocol.conditions: female, C57B16/N, mouse, plasma; 10 mg/kg PO, formulation a; read-out: Cmax
result.type: Cmax

* C[C@@H]1Cc2cc(C(N)=O)cnc2N1 | 412 ng/mL

###

# method.notes: Mouse PK studies of 11 (plasma)
# Format: in vivo, Female C57B16/N mice
# protocol.conditions: 50 mg/kg PO, formulation a
result.type: AUClast/D (kg·ng·h/mL/mg)

* C[C@@H]1Cc2cc(C(N)=O)cnc2N1 [Compound 11] | 1020

###

# method.notes: Metabolic stability in pooled male mouse liver microsomes
# protocol.conditions: male, mouse, pooled liver microsomes
result.type: half-life at 2 μM

* C[C@@H]1Cc2cc(C(N)=O)cnc2N1 | > 4.26 h

###

# method.notes: Mouse PK studies of 11 (plasma)
# Format: in vivo, Female C57B16/N mice
# protocol.conditions: female, C57B16/N, mouse, plasma, iv, 1 mg/kg, 1 mg/kg IV
result.type: AUC(0-inf) (ng·h/mL)

- C[C@@H]1Cc2cc(C(N)=O)cnc2N1: 467

###

# method.notes: Mouse PK studies of 11 (plasma)
# Format: in vivo, Female C57B16/N mice
# protocol.conditions: female, C57B16/N, mouse, plasma, po, 50 mg/kg, 50 mg/kg PO, formulation a
result.type: AUC(0-t) (ng·h/mL)

• C[C@@H]1Cc2cc(C(N)=O)cnc2N1 [Compound 11] = 51100

###

# method.notes: Mouse PK studies of 11 (plasma)
# Type: in vivo, Female C57B16/N mice
# protocol.conditions: female, C57B16/N, mouse, plasma; 10 mg/kg PO, formulation a
# Source text: Doses were freshly prepared on the day of dosing. Vehicle compositions of each dose are listed below. […] Adjust pH with 1 N hydrochloric acid to obtain a clear solution or (b) 0.2% Tween 80/20% PEG-300 in water. Adjust pH with 1 N hydrochloric acid to obtain a clear solution Then the samples were vortexed for 30 s.
result.type: Tmax (min)

- C[C@@H]1Cc2cc(C(N)=O)cnc2N1: 30

Hello, the source for this data is patent US20250368638A1, in case you need it.
